test: Acute toxicity in mice; assay type: in vivo; conditions: mouse, in vivo; Chbb:NMRI (SPF)-mice of both sexes, oral (esophageal tube), deaths within 14 days
Exam item: assign true (1) to entries whose LD50 at 336 h is below 3000 mg/kg and false (0) to entries at or above 3000 mg/kg. Note that a value of exactly 3000 mg/kg receives false (0).

Past entries and their recorded results:
COMPOUND | CLASS LABEL
O=c1[nH]c2cccc(Cl)c2s1 [C, 7-chloro-benzothiazol-2(3H)-one] | false (0)
COc1ccc2sc(=O)[nH]c2c1 [A, 5-methoxy-benzothiazol-2(3H)-one] | true (1)
Cc1ccc2sc(=O)[nH]c2c1 [G, 5-methyl-benzothiazol-2(3H)-one] | true (1)
Cc1cccc2sc(=O)[nH]c12 [F, 4-methyl-benzothiazol-2(3H)-one] | false (0)

# input for lookup
Input: Decide: LD50 at 336 h of O=c1[nH]c2ccc(F)cc2s1 [B, 6-fluoro-benzothiazol-2(3H)-one] strictly below 3000 mg/kg?
Output: true (1)

====

tested on: inflammation pain of the rat; assay: Effect on the inflammation pain of the rat (Randall-Selitto, yeast-injected paw); type: in vivo; details: 1.5 h, After Ninety Minutes, male Chbb:THOM-rats, oral (esophageal tube), dose raising pain threshold by 50% vs controls
MEASUREMENT LABEL: ED50 (mg/kg)
// note: answer is a bare numeric in mg/kg

MOL SMILES | MEASUREMENT LABEL | RECORDED NUMBER
O=c1[nH]c2cccc(Cl)c2s1 | ED50 | 105
O=c1[nH]c2c(Cl)cccc2s1 | ED50 | 23

Field: next molecule
Input: So what does the record say about ED50 for `O=c1[nH]c2ccc(F)cc2s1` ?
Output: 76

====

Each entry below carries its reported ED50.
system: inflammation pain of the rat; experiment: Effect on the inflammation pain of the rat (Randall-Selitto, yeast-injected paw); assay type: in vivo; settings: 1.5 h, After Ninety Minutes, male Chbb:THOM-rats, oral (esophageal tube), dose raising pain threshold by 50% vs controls
// note: answer is a bare numeric in mg/kg

Reference set, count: 4
MOL SMILES | ED50 / mg/kg
O=c1[nH]c2ccc(Cl)cc2s1 | 129
COc1ccc2sc(=O)[nH]c2c1 | 150
Cc1cccc2sc(=O)[nH]c12 | 202
COc1cc2[nH]c(=O)sc2cc1OC | 40

Field: next compound
Input: So what does the record say about ED50 for `Cc1ccc2sc(=O)[nH]c2c1` ?
Output: 97

====

Tested on: heat pain of the mouse
Assay: Effect on the heat sensitivity of the mouse (hot plate, 52° C.)
Type: in vivo
Conditions: male Chbb:NMRI (SPF)-mice, oral (esophageal tube), dose increasing time of reaction by 100%
Description: The test performed according to a modification of the method described by CHEN and BECKMAN [Science, 113, 631 (1951)] in male Chbb:NMRI (SPF)-mice with an average weight of 20 grams. The test substances were administered as trituration in 1% methyl cellulose (0.1 ml/10 gm of mouse) by means of an esophageal tube. Before treatment with the test substance, the animals were twice put on the hot plate at an interval of 30 minutes, whereby their individual times of reaction were measured. […]
Each entry below carries its reported ED100.
// note: answer is a bare numeric in mg/kg

MOLECULE | ED100 (mg/kg)
COc1cc2[nH]c(=O)sc2cc1OC [E, 5,6-dimethoxy-benzothiazol-2(3H)-one] | 92
O=c1[nH]c2c(Cl)cccc2s1 [H, 4-chloro-benzothiazol-2(3H)-one] | 125
Cc1ccc2sc(=O)[nH]c2c1 [G, 5-methyl-benzothiazol-2(3H)-one] | 178
COc1ccc2sc(=O)[nH]c2c1 [A, 5-methoxy-benzothiazol-2(3H)-one] | 218
O=c1[nH]c2ccc(F)cc2s1 [B, 6-fluoro-benzothiazol-2(3H)-one] | 165

Input: So what does the record say about ED100 for Cc1cccc2sc(=O)[nH]c12 [F, 4-methyl-benzothiazol-2(3H)-one] ?
Output: 113

Taken from patent US4353919A.
